study.target: UniProt P08183
Sequence (P08183 whole entry): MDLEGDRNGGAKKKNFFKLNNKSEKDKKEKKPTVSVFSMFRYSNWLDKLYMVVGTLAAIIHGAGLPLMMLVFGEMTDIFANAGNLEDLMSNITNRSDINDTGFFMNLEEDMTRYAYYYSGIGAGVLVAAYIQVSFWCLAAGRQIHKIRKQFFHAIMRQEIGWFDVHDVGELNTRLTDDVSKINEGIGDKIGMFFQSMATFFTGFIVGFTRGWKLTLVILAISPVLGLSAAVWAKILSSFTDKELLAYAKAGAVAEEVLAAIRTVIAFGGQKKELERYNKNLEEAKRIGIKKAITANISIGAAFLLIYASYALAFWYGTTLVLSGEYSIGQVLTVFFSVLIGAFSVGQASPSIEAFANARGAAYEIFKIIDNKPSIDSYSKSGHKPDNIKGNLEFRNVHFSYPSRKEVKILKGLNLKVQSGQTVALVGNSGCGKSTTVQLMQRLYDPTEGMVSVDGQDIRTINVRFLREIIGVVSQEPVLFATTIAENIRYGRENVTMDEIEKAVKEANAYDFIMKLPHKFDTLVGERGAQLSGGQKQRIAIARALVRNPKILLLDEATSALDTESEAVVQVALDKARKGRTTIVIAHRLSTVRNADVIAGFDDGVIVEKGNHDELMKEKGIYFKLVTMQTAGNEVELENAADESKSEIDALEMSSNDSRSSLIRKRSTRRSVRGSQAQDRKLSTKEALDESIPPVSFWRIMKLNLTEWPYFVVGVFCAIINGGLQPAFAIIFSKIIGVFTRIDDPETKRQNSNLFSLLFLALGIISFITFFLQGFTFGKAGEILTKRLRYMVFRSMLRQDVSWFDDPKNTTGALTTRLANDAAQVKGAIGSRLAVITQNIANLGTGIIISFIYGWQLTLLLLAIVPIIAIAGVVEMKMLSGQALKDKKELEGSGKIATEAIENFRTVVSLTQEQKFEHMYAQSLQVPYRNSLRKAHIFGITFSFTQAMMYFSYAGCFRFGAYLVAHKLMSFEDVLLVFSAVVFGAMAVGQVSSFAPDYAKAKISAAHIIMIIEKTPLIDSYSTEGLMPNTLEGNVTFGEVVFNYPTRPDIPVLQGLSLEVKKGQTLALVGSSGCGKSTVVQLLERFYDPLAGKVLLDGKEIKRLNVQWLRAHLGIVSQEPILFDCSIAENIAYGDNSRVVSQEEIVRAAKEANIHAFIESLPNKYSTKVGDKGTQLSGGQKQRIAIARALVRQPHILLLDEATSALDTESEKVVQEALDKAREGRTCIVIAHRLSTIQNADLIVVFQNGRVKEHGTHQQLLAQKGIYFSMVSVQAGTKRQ
assay.info: Transepithelial transport in monolayers of MDCKII cells over-expressing ABCB1
condition: MDCKII over-expressing ABCB1, after 4h, 5 μM (compound 8: 1 μM)
Collected B to A transport (percentage of drug appearing in the opposite compartment) values appear next to each entry.
Number in %, nothing else.

Solved cases below.
- sample.smiles: "Cc1ccc(OC(=O)NC2CCCCC2)cc1-c1cccc(C(N)=O)c1"
  units: "%"
  reported.measurement: 35.8
- sample.smiles: "CC(=O)c1cccc(-c2cc(OC(=O)NC3CCCCC3)ccc2O)c1"
  units: "%"
  reported.measurement: 57.6
- sample.smiles: "NC(=O)c1cccc(-c2cc(OC(=O)NC3CCCCC3)ccc2O)c1"
  units: "%"
  reported.measurement: 50.2

Q) Recorded B to A transport (percentage of drug appearing in the opposite compartment) for CN(C)C(=O)c1cccc(-c2cc(OC(=O)NC3CCCCC3)ccc2O)c1 , please?
A) 58.6

Q) Next compound: CNC(=O)c1cccc(-c2cc(OC(=O)NC3CCCCC3)ccc2O)c1
A) 67.4

Q) Next compound: COc1ccc(OC(=O)NC2CCCCC2)cc1-c1cccc(C(N)=O)c1
A) 45.1
